System: Serine/threonine-protein kinase PLK1 (Homo sapiens, UniProt P53350) | Read-out: IC50 | Origin: multiple publications
readoutKind: IC50

1) CC[C@@]12COCCN1c1nc(-c3snnc3-c3ccc(F)cn3)ncc1N(C)C2=O = > 50000 nM
2) COc1cc(C(=O)NC2CCN(C)CC2)ccc1Nc1ncc2c(n1)N(C1CCCC1)CC(C)C(=O)N2C (racemic) = < 500 nM
3) CC[C@@H]1C(=O)N(C)c2cnc(-c3sc(N)nc3-c3ccc(F)cc3)nc2N1C(C)C = < 1000 nM
4) CNS(=O)(=O)c1ccc2c(c1)C(=Cc1ccc3cn[nH]c3c1)C(=O)N2 (mixture of isomers) = < 5000 nM
